B1: Azoarcus group I ribozyme (parent)
chain: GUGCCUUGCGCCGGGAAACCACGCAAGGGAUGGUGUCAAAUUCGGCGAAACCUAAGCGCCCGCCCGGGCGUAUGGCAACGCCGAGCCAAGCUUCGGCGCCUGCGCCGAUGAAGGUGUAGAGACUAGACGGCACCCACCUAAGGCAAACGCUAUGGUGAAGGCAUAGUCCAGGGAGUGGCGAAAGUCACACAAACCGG

- Variants of: B1
- Measurement notes: reverse-splicing fitness (ratio to wild type); higher = more active; in vitro selection; Mg2+ level not given
Grouping key: reverse-splicing fitness. Bins: low group = under 0.007, middle group = from 0.007 up to 0.02, high group = 0.02 and over

[
  {
    "Mutant code": "A111G A145G C150A U176C",
    "Category label": "high group"
  },
  {
    "Mutant code": "C82G A111U A120U C150U C169A",
    "Category label": "low group"
  },
  {
    "Mutant code": "C82A A111G A120U A145U C169G U176C",
    "Category label": "low group"
  },
  {
    "Mutant code": "C82A A111C A120C A145U C150G C169G U176C",
    "Category label": "low group"
  },
  {
    "Mutant code": "C82G A111C A120U A145C U176G",
    "Category label": "low group"
  },
  {
    "Mutant code": "C82G A111U A120G A145C C150G C169G",
    "Category label": "middle group"
  },
  {
    "Mutant code": "C82U A111G A145G C150U U176C",
    "Category label": "high group"
  },
  {
    "Mutant code": "C82U A111U A120U A145C C150G C169A",
    "Category label": "low group"
  },
  {
    "Mutant code": "C82U A111G A120U A145G C150A U176A",
    "Category label": "low group"
  },
  {
    "Mutant code": "A111G A120U A145G C150A C169G U176A",
    "Category label": "middle group"
  },
  {
    "Mutant code": "A120U A145C C150A C169A",
    "Category label": "low group"
  },
  {
    "Mutant code": "A111C A120G A145C C150U C169U",
    "Category label": "high group"
  },
  {
    "Mutant code": "C82A A111G A145U C169U U176G",
    "Category label": "low group"
  },
  {
    "Mutant code": "A120C A145C C150U U176A",
    "Category label": "high group"
  },
  {
    "Mutant code": "A111G A120C A145C C150A C169U U176C",
    "Category label": "middle group"
  },
  {
    "Mutant code": "C82A A111G A145U C150G C169U U176C",
    "Category label": "middle group"
  },
  {
    "Mutant code": "C82U A145U C150U U176C",
    "Category label": "high group"
  },
  {
    "Mutant code": "C82A A111C A120C A145C C150A",
    "Category label": "middle group"
  },
  {
    "Mutant code": "C82G A111C A120C A145G C150A C169U U176A",
    "Category label": "middle group"
  },
  {
    "Mutant code": "C82G A145G C150G C169U U176A",
    "Category label": "middle group"
  },
  {
    "Mutant code": "C82G A120C A145U C169G U176A",
    "Category label": "middle group"
  },
  {
    "Mutant code": "A111C A120U C150A U176C",
    "Category label": "high group"
  },
  {
    "Mutant code": "C82U A120C A145C C150U C169A U176G",
    "Category label": "low group"
  },
  {
    "Mutant code": "C82A A111G A120G A145C C150A C169A",
    "Category label": "middle group"
  },
  {
    "Mutant code": "C82U A111C A120C A145U C150G C169G U176G",
    "Category label": "low group"
  },
  {
    "Mutant code": "C82A A111C A145G C150G C169A U176G",
    "Category label": "middle group"
  },
  {
    "Mutant code": "C82U A120G C150U C169U U176C",
    "Category label": "middle group"
  },
  {
    "Mutant code": "A111G A145C C169G",
    "Category label": "high group"
  },
  {
    "Mutant code": "C82G A111U A120U A145U C150G C169G U176A",
    "Category label": "low group"
  },
  {
    "Mutant code": "A111G A120G C150A C169U U176C",
    "Category label": "high group"
  },
  {
    "Mutant code": "C82A A111U A145G C169G U176A",
    "Category label": "high group"
  },
  {
    "Mutant code": "C82U A111G A145C U176A",
    "Category label": "high group"
  },
  {
    "Mutant code": "C82U A111G A145C C150A C169G U176A",
    "Category label": "high group"
  },
  {
    "Mutant code": "A111G A120C A145C C169A U176C",
    "Category label": "low group"
  },
  {
    "Mutant code": "A111C A120C A145C C150A C169G U176C",
    "Category label": "middle group"
  },
  {
    "Mutant code": "C82A A111C A120U A145U C150U C169G U176A",
    "Category label": "low group"
  },
  {
    "Mutant code": "C82U A111G A120G C150U C169U U176C",
    "Category label": "middle group"
  },
  {
    "Mutant code": "C82A A111U A120G A145U U176G",
    "Category label": "low group"
  },
  {
    "Mutant code": "A120U A145G C150U C169A",
    "Category label": "middle group"
  },
  {
    "Mutant code": "C82U A111U A120C A145U C150A C169U U176C",
    "Category label": "middle group"
  },
  {
    "Mutant code": "A111U",
    "Category label": "high group"
  },
  {
    "Mutant code": "C82A A111G A120G A145C C150A U176C",
    "Category label": "middle group"
  },
  {
    "Mutant code": "C82G A111U C169A U176A",
    "Category label": "middle group"
  },
  {
    "Mutant code": "C82G A111C A120C A145G C150U C169A",
    "Category label": "middle group"
  },
  {
    "Mutant code": "C82A A120U C150A C169A U176C",
    "Category label": "low group"
  },
  {
    "Mutant code": "A111G A120G A145G C150A C169G U176C",
    "Category label": "high group"
  },
  {
    "Mutant code": "C82G A145U C169U U176G",
    "Category label": "low group"
  },
  {
    "Mutant code": "C82U C150U C169U U176C",
    "Category label": "middle group"
  },
  {
    "Mutant code": "A111G A120G A145U C150G C169A U176A",
    "Category label": "middle group"
  },
  {
    "Mutant code": "A111U A120U A145U C169G U176A",
    "Category label": "low group"
  },
  {
    "Mutant code": "C82U C150A U176A",
    "Category label": "high group"
  },
  {
    "Mutant code": "A111U A145G C169G U176G",
    "Category label": "low group"
  },
  {
    "Mutant code": "C82U A111G A120U U176A",
    "Category label": "middle group"
  },
  {
    "Mutant code": "C82U A111U A120U A145U U176C",
    "Category label": "middle group"
  },
  {
    "Mutant code": "C82A A111G C150U U176A",
    "Category label": "high group"
  },
  {
    "Mutant code": "C82A A111G A120G C150A U176A",
    "Category label": "middle group"
  },
  {
    "Mutant code": "A111G A120C A145G C150A C169U U176G",
    "Category label": "low group"
  },
  {
    "Mutant code": "C82G A111U A120G C169A U176C",
    "Category label": "high group"
  },
  {
    "Mutant code": "C82G A120G C150U C169G U176C",
    "Category label": "high group"
  },
  {
    "Mutant code": "C82G A111G A120G A145U C150G C169U U176G",
    "Category label": "low group"
  },
  {
    "Mutant code": "C82G A111U A120G A145U C150G C169G",
    "Category label": "middle group"
  },
  {
    "Mutant code": "C82G A111G A120G A145C C150A C169A U176C",
    "Category label": "middle group"
  },
  {
    "Mutant code": "C82U A111U A145U C150A U176A",
    "Category label": "middle group"
  },
  {
    "Mutant code": "C82A A120U A145C C150U U176C",
    "Category label": "middle group"
  },
  {
    "Mutant code": "C82G A111G A120U A145G C150U C169G U176A",
    "Category label": "middle group"
  },
  {
    "Mutant code": "C82A A120G A145U C150G C169U U176A",
    "Category label": "middle group"
  },
  {
    "Mutant code": "C82G A120G A145G C150G C169A",
    "Category label": "middle group"
  },
  {
    "Mutant code": "C82A A111G A120U A145U C150A C169U U176C",
    "Category label": "low group"
  },
  {
    "Mutant code": "C82U A120G A145G C150U C169G U176G",
    "Category label": "low group"
  },
  {
    "Mutant code": "C82U A120G A145G C150G C169U U176A",
    "Category label": "middle group"
  },
  {
    "Mutant code": "C82G A145U C169G U176G",
    "Category label": "low group"
  },
  {
    "Mutant code": "C82A A111C A120C A145G C150U",
    "Category label": "high group"
  },
  {
    "Mutant code": "C82U A111U C150G C169A U176A",
    "Category label": "middle group"
  },
  {
    "Mutant code": "C82U A111C A120U C169G",
    "Category label": "low group"
  },
  {
    "Mutant code": "C82U A111G A120U A145U C169G U176G",
    "Category label": "low group"
  },
  {
    "Mutant code": "C82G A111U A120G A145C C150A C169G U176A",
    "Category label": "high group"
  },
  {
    "Mutant code": "C82U A111G A120U A145G C150U C169A U176G",
    "Category label": "low group"
  },
  {
    "Mutant code": "C82G A111G A120G A145G C150U U176C",
    "Category label": "middle group"
  },
  {
    "Mutant code": "A120U A145C C169G U176A",
    "Category label": "high group"
  },
  {
    "Mutant code": "C82A A111G A145G C150U C169U",
    "Category label": "middle group"
  },
  {
    "Mutant code": "C82G A111U A120U A145G C150U C169A U176G",
    "Category label": "low group"
  },
  {
    "Mutant code": "C82G A120G A145U C150U C169U",
    "Category label": "middle group"
  },
  {
    "Mutant code": "A111C A120U A145G C169G U176A",
    "Category label": "low group"
  }
]
